Tested on: CRL-7250
Test description: Cytotoxic Profiling of Annotated Libraries Using Quantitative High-Throughput Screening (AID 1296008); note: % is set by controls: 0 for no effect and ±100 for the full control effect; nearly all actives have a fitted effect of over 60% in size
Measurement setup: Five cell lines viability, CellTiter-Glo ATP luminescence, 48-72 h; stronger effect = lower value
Records with an inconclusive call do not appear.

Compound: COc1nccnc1NS(=O)(=O)c1ccc(N)cc1
max response (%): 3.15
--
Compound: CC1CCN(CCCC(=O)c2ccc(F)cc2)CC1
max response (%): -0.306
--
Compound: C[C@@H]1O[C@@H](OC[C@H]2O[C@@H](Oc3c(-c4ccc(O)c(O)c4)oc4cc(O)cc(O)c4c3=O)[C@H](O)[C@@H](O)[C@@H]2O)[C@H](O)[C@H](O)[C@H]1O
max response (%): -4.29
--
Compound: CCCCCCCCCCC(CO)CCCCCCCC (stereo not given)
max response (%): -6.12
--
Compound: NC(=O)NS(=O)(=O)c1ccc(N)cc1
max response (%): -2.79

====

Test description: Drug repurposing screens with cells derived from glioblastoma tumor samples (AID 1345199); note: % is set by controls: 0 for no effect and ±100 for the full control effect; nearly all actives have a fitted effect of over 40% in size
Measurement setup: GBM patient neurospheres viability, ATP luminescence, 48 h; at 45.9 µM (top of the series); tumour line B
Inconclusive results are not listed.
Threshold -10%: activity, negative = cell killing strictly smaller gives Condition met, otherwise Condition not met.

Compound: O=c1[nH]c(=O)c2ccccc2o1
Category: Condition met
//
Compound: CCN(CC)C(=O)c1cccc(C)c1
Category: Condition met
//
Compound: CN[C@@H]1[C@@H](O)[C@@H](O[C@@H]2[C@H](O)[C@H](O[C@H]3OC(CN)=CC[C@H]3N)[C@@H](N)C[C@H]2N)OCC1(C)O (stereo partly drawn)
Category: Condition not met
//
Compound: CNc1c2c(nn1C)CCCC2
Category: Condition not met
//
Compound: COc1ccccc1Oc1c(NS(=O)(=O)c2ccc(C(C)(C)C)cc2)nc(-c2ncccn2)nc1OCCO
Category: Condition met
//
Compound: Cn1c([N+](=O)[O-])cnc1COC(N)=O
Category: Condition not met
//
Compound: NNc1nnc(NN)c2ccccc12
Category: Condition not met
//
Compound: CC(=O)Nc1cccc(O)c1
Category: Condition not met

====

Test description: qHTS of pediatric cancer cell lines to identify multiple opportunities for drug repurposing: Primary screen for A673 cells (AID 1347092); note: % is set by controls: 0 for no effect and ±100 for the full control effect; nearly all actives have a fitted effect of over 45% in size
Measurement setup: A673 Ewing sarcoma viability, CellTiter-Glo ATP luminescence, 48 h; series mostly up to 46 µM
Inconclusive results are not listed. Calls of active or inactive are those of the source. The call rests on the fitted dose curve; in most records, active means well fitted cell-killing curve with a large enough effect; inconclusive means small, poorly fitted or top-dose-only effect; inactive means no such curve, though single readings can be large or run the other way.

Compound: CC1CC(OC(=O)c2ccccc2O)CC(C)(C)C1 (stereo unspecified)
activity change, negative = cytotoxic: inactive
--
Compound: C[n+]1ccccc1/C=N/O
activity change, negative = cytotoxic: inactive
--
Compound: CCN(CC)CCc1nc(-c2ccccc2)no1
activity change, negative = cytotoxic: inactive
--
Compound: Cc1c(Cn2ccnc2)c2ccccc2n1CCC(=O)O
activity change, negative = cytotoxic: inactive
--
Compound: O=C(O)Cn1c(C(=O)Nc2nc(-c3ccccc3Cl)cs2)cc2ccccc21
activity change, negative = cytotoxic: inactive
--
Compound: C=CCN1C[C@H](C(=O)N(CCCN(C)C)C(=O)NCC)C[C@@H]2c3cccc4[nH]cc(c34)C[C@H]21
activity change, negative = cytotoxic: inactive
--
Compound: COc1ccc(C(=O)N2CCN(CC(=O)N3CCOCC3)CC2)cc1
activity change, negative = cytotoxic: inactive
--
Compound: CC[C@]12CCCN3CCc4c(n(c5ccccc45)[C@@](O)(C(=O)OC)C1)[C@@H]32
activity change, negative = cytotoxic: inactive
--
Compound: Cc1ccccc1N=Nc1ccc(N=Nc2c(O)ccc3ccccc23)c(C)c1
activity change, negative = cytotoxic: inactive
--
Compound: CCN[C@H]1CN(CCCOC)S(=O)(=O)c2sc(S(N)(=O)=O)cc21
activity change, negative = cytotoxic: inactive
--
Compound: CNCc1ccccc1
activity change, negative = cytotoxic: inactive
--
Compound: O=C(O)CNC(=O)c1ccccc1I
activity change, negative = cytotoxic: inactive
--
Compound: Cc1cccc(C)c1NC(=O)CC12CCCN1CCC2
activity change, negative = cytotoxic: inactive
--
Compound: Cc1c(NC(C)C)c(=O)n(-c2ccccc2)n1C
activity change, negative = cytotoxic: inactive
--
Compound: NC(N)=NS(=O)(=O)c1ccc(N)cc1
activity change, negative = cytotoxic: inactive
--
Compound: C[C@@H](N)C(=O)O
activity change, negative = cytotoxic: inactive
--
Compound: C[C@@H](c1ncncc1F)C(O)(Cn1cncn1)c1ccc(F)cc1F (stereo partly specified)
activity change, negative = cytotoxic: inactive
--
Compound: Cn1c([N+](=O)[O-])cnc1COC(N)=O
activity change, negative = cytotoxic: inactive
--
Compound: O=C(O)COC(=O)Cc1ccccc1Nc1c(Cl)cccc1Cl
activity change, negative = cytotoxic: inactive
--
Compound: Cc1cc(C)c(NC(=O)CN(CC(=O)O)CC(=O)O)c(C)c1Br
activity change, negative = cytotoxic: inactive
--
Compound: CCN(CC)C(=O)c1cccc(C)c1
activity change, negative = cytotoxic: inactive
--
Compound: Cc1c(I)c(=O)n(-c2ccccc2)n1C
activity change, negative = cytotoxic: inactive
--
Compound: CC(=O)OC[C@H]1O[C@@](COC(C)=O)(O[C@H]2O[C@H](COC(C)=O)[C@@H](OC(C)=O)[C@H](OC(C)=O)[C@H]2OC(C)=O)[C@@H](OC(C)=O)[C@@H]1OC(C)=O
activity change, negative = cytotoxic: inactive
--
Compound: CN1CCN(C(=O)C2CCCCC2)CC1
activity change, negative = cytotoxic: inactive
--
Compound: NS(=O)(=O)c1cc(-c2nn[nH]n2)c(NCc2cccs2)cc1Cl
activity change, negative = cytotoxic: inactive
--
Compound: CC(C(=O)O)c1ccc2c(c1)Cc1cccnc1O2 (stereo unspecified)
activity change, negative = cytotoxic: inactive

====

System: ATS189
Test description: qHTS profiling for inhibitors of Plasmodium falciparum proliferation (AID 504749);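 note: 0% = DMSO vehicle and full inhibition = artemisinin control; nearly all actives have a fitted effect of over 60% in size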
Measurement setup: P. falciparum in erythrocytes, SYBR Green DNA, 72 h; series mostly up to 28.7 µM
Inconclusive results are not listed. Calls of active or inactive are those of the source. Calls come from the whole dose curve; as a rule, active = well fitted inhibition curve with a large enough effect; inconclusive = small, poorly fitted or top-dose-only effect; inactive = flat fitted curve, though single readings scatter.

Compound: COc1ccc(NS(=O)(=O)c2ccc(N)cc2)nn1
System under test: ATS189
outcome: inactive
--
Compound: O=C1c2ccccc2C(=O)C1c1ccc(Br)cc1
System under test: ATS189
outcome: inactive
--
Compound: CC1CC(OC(=O)c2ccccc2O)CC(C)(C)C1 (configuration not stated)
System under test: ATS189
outcome: inactive
--
Compound: Cc1[nH]c(C)c(Cl)c(=O)c1Cl
System under test: ATS189
outcome: inactive
--
Compound: CC(O)CCCCn1c(=O)c2c(ncn2C)n(C)c1=O (configuration not stated)
System under test: ATS189
outcome: inactive
--
Compound: COC(=O)c1cccnc1
System under test: ATS189
outcome: inactive
--
Compound: CCCCOC(=O)c1ccc(N)cc1
System under test: ATS189
outcome: inactive

====

Tested on: CAOV3
Test description: Primary qHTS to identify gynecologic anti-cancer compounds using libraries of approved drugs and bioactive compounds (AID 1345084); note: % is set by controls: 0 for no effect and ±100 for the full control effect; nearly all actives have a fitted effect of over 55% in size
Measurement setup: Gynecologic cancer cell panel viability, ATPlite luminescence, 48 h; series mostly up to 57.5 µM
Results filed as inconclusive are left out. Calls of active or inactive are those of the source. The call rests on the fitted dose curve; in most records, active means well fitted cell-killing curve with a large enough effect; inconclusive means small, poorly fitted or top-dose-only effect, or effect the other way; inactive means flat fitted curve, though single readings scatter.
Assay metric: activity change, negative = cytotoxicity

Chemical string: NNc1nnc(NN)c2ccccc12
Assay metric: activity change, negative = cytotoxicity
Observed value: inactive
--
Chemical string: CC[N+](CC)(CC(=O)Nc1c(C)cccc1C)Cc1ccccc1
Assay metric: activity change, negative = cytotoxicity
Observed value: inactive
--
Chemical string: C1CCN2C[C@@H]3C[C@@H](CN4CCCC[C@@H]34)[C@H]2C1
Assay metric: activity change, negative = cytotoxicity
Observed value: inactive

====

Test system: JEG-3
Test description: Primary qHTS to identify gynecologic anti-cancer compounds using libraries of approved drugs and bioactive compounds (AID 1345084); note: % is set by controls: 0 for no effect and ±100 for the full control effect; nearly all actives have a fitted effect of over 55% in size
Measurement setup: Gynecologic cancer cell panel viability, ATPlite luminescence, 48 h; series mostly up to 57.5 µM
Inconclusive results are not listed. Active and inactive are the calls of the source. The call rests on the fitted dose curve; in most records, active means well fitted cell-killing curve with a large enough effect; inconclusive means small, poorly fitted or top-dose-only effect, or effect the other way; inactive means flat fitted curve, though single readings scatter.
Assay metric: activity change, negative = cytotoxicity

Molecule: O=C1c2cccc(O)c2C(=O)c2c(O)cccc21
System under test: JEG-3
Observed value: inactive
--
Molecule: CN(C(=O)c1c(O)c2ccccc2n(C)c1=O)c1ccccc1
System under test: JEG-3
Observed value: inactive
--
Molecule: O=C(NCN1CCOCC1)c1cnccn1
System under test: JEG-3
Observed value: inactive
--
Molecule: NS(=O)(=O)c1cc(-c2nn[nH]n2)c(NCc2cccs2)cc1Cl
System under test: JEG-3
Observed value: inactive
--
Molecule: CCN(CC)CCOC(=O)C(c1ccccc1)c1ccccc1
System under test: JEG-3
Observed value: inactive
--
Molecule: CN[C@@H]1[C@@H](O)[C@@H](O[C@@H]2[C@H](O)[C@H](O[C@H]3OC(CN)=CC[C@H]3N)[C@@H](N)C[C@H]2N)OCC1(C)O (stereo partly drawn)
System under test: JEG-3
Observed value: inactive
--
Molecule: COC(=O)c1cccnc1
System under test: JEG-3
Observed value: inactive
--
Molecule: O=C(O)Cn1c(C(=O)Nc2nc(-c3ccccc3Cl)cs2)cc2ccccc21
System under test: JEG-3
Observed value: inactive
--
Molecule: Cc1c(Cn2ccnc2)c2ccccc2n1CCC(=O)O
System under test: JEG-3
Observed value: inactive
--
Molecule: CC(=O)OCC(=O)[C@@]1(O)CC[C@H]2[C@@H]3CCC4=CC(=O)C=C[C@]4(C)[C@@]3(F)[C@@H](O)C[C@@]21C
System under test: JEG-3
Observed value: inactive
--
Molecule: c1ccc2[nH]ccc2c1
System under test: JEG-3
Observed value: inactive
--
Molecule: O=C(O)/C=C/c1ccc(Cn2ccnc2)cc1
System under test: JEG-3
Observed value: inactive
--
Molecule: Cc1ccc2c(c1)c1c3n2CCNC3CCC1 (stereo not drawn)
System under test: JEG-3
Observed value: inactive
--
Molecule: C[C@H]1COc2c(C3(N)CC3)c(F)cc3c(=O)c(C(=O)O)cn1c23
System under test: JEG-3
Observed value: inactive
--
Molecule: CCCCCOC(=O)Nc1nc(=O)n([C@@H]2O[C@H](C)[C@@H](O)[C@H]2O)cc1F
System under test: JEG-3
Observed value: inactive
--
Molecule: O=C(O)Cc1cn(-c2ccccc2)nc1-c1ccc(Cl)cc1
System under test: JEG-3
Observed value: inactive
--
Molecule: COc1ccccc1Oc1c(NS(=O)(=O)c2ccc(C(C)(C)C)cc2)nc(-c2ncccn2)nc1OCCO
System under test: JEG-3
Observed value: inactive
--
Molecule: C=CCN1C[C@H](C(=O)N(CCCN(C)C)C(=O)NCC)C[C@@H]2c3cccc4[nH]cc(c34)C[C@H]21
System under test: JEG-3
Observed value: inactive
--
Molecule: C[N+](C)(C)CC(O)CC(=O)[O-] (stereo not drawn)
System under test: JEG-3
Observed value: inactive
--
Molecule: CC1(C)S[C@@H]2[C@H](N=CN3CCCCCC3)C(=O)N2[C@H]1C(=O)O
System under test: JEG-3
Observed value: inactive
--
Molecule: CCOC(=O)[C@H](CCc1ccccc1)N[C@@H](C)C(=O)N1CCC[C@H]1C(=O)O
System under test: JEG-3
Observed value: inactive
--
Molecule: Nc1c2c(nc3c1CCC3)CCCC2
System under test: JEG-3
Observed value: inactive
--
Molecule: Nc1ccc(S(=O)(=O)c2ccc(N)cc2)cc1
System under test: JEG-3
Observed value: inactive
--
Molecule: OCC(O)CS (stereo not drawn)
System under test: JEG-3
Observed value: inactive
--
Molecule: C[n+]1ccccc1/C=N/O
System under test: JEG-3
Observed value: inactive
--
Molecule: CC[C@H](C)[C@H](N)C(=O)O
System under test: JEG-3
Observed value: inactive
--
Molecule: CN1C(=O)CC(c2ccccc2)C1=O (stereo not drawn)
System under test: JEG-3
Observed value: inactive
--
Molecule: C1CCN2C[C@@H]3C[C@@H](CN4CCCC[C@@H]34)[C@H]2C1
System under test: JEG-3
Observed value: inactive
--
Molecule: C[C@@H](c1ncncc1F)C(O)(Cn1cncn1)c1ccc(F)cc1F (stereo partly drawn)
System under test: JEG-3
Observed value: inactive
--
Molecule: NCC1CCC(C(=O)Oc2ccc(CCC(=O)O)cc2)CC1 (stereo not drawn)
System under test: JEG-3
Observed value: inactive
--
Molecule: O=S1(=O)OC(c2ccc(O)cc2)(c2ccc(O)cc2)c2ccccc21
System under test: JEG-3
Observed value: inactive
--
Molecule: NC(=O)NC1NC(=O)NC1=O (stereo not drawn)
System under test: JEG-3
Observed value: inactive
--
Molecule: Cn1cc(C(=O)[C@@H]2CCc3nc[nH]c3C2)c2ccccc21
System under test: JEG-3
Observed value: inactive
--
Molecule: CC(=O)[C@@]1(O)CC[C@H]2[C@@H]3C[C@H](C)C4=CC(=O)C=C[C@]4(C)[C@@]3(F)[C@@H](O)C[C@@]21C
System under test: JEG-3
Observed value: inactive
--
Molecule: CCCCCC(N)=O
System under test: JEG-3
Observed value: inactive
--
Molecule: Cc1onc(-c2ccccc2)c1-c1ccc(S(N)(=O)=O)cc1
System under test: JEG-3
Observed value: inactive
--
Molecule: CC(C)CCOC(=O)c1ccc(N(C)C)cc1
System under test: JEG-3
Observed value: inactive
--
Molecule: Cc1c(C)c2c(c(C)c1OC(=O)c1cccnc1)CC[C@@](C)(CCC[C@H](C)CCC[C@H](C)CCCC(C)C)O2
System under test: JEG-3
Observed value: inactive
--
Molecule: CCCCCC(C)N (stereo not drawn)
System under test: JEG-3
Observed value: inactive
--
Molecule: NC(=O)c1ccc([N+](=O)[O-])cc1Cl
System under test: JEG-3
Observed value: inactive
--
Molecule: O=C(O)c1cc(=O)c2ccccc2o1
System under test: JEG-3
Observed value: inactive
--
Molecule: O=C(O)c1ccc[n+]([O-])c1
System under test: JEG-3
Observed value: inactive
--
Molecule: O=c1[nH]c2cc(C(F)(F)F)c(N3CCOCC3)cc2n(CP(=O)(O)O)c1=O
System under test: JEG-3
Observed value: inactive
--
Molecule: CC(=O)Nc1cccc(O)c1
System under test: JEG-3
Observed value: inactive
--
Molecule: O=C1C(c2[nH]c3ccccc3c2O)=Nc2ccccc21
System under test: JEG-3
Observed value: inactive
--
Molecule: O=C(O)COC(=O)Cc1ccccc1Nc1c(Cl)cccc1Cl
System under test: JEG-3
Observed value: inactive
--
Molecule: Nc1ccc(C(=O)Oc2ccccc2)c(O)c1
System under test: JEG-3
Observed value: inactive
--
Molecule: CCCCCCCCCCOc1cc2c(=O)c(C(=O)OCC)c[nH]c2cc1OCC
System under test: JEG-3
Observed value: 6.94% [at 6.55 µM] (inactive)
